Reported Percent Effect is given for each of the following molecules.
tested on: Wolbachia pipientis; test: Anti-Wolbachia Cell-Based Screen; format: functional; parameters: scale not given: in the data most compounds retested in dose-response had high values; conditions: 5 µM
In all, about 48,000 compounds went through this assay and about 13,000 (27%) showed an effect of 50% or more. This is one part of the list.
measured_quantity: Percent Effect (%)

INSERT INTO results (molecule, readout_units, observed) VALUES
  ('COc1ncc(-c2ccc(C(N)=O)cc2)c(OC)n1', '%', 99.76),
  ('Cc1oc(C(C)C)cc1C(=O)N1C[C@H]2CC[C@@H]1CN(c1ncccn1)C2', '%', 6.387),
  ('Cc1occc1-c1nc(NC2CCCC2)ncc1-c1ccccn1', '%', 77.82),
  ('CC1CCC(NC(=O)Nc2ccc(CC(=O)N(C)C)cc2)CC1 (configuration not stated)', '%', 5.136),
  ('O=C(Cc1cccs1)N1CCc2nnc(COc3cncnc3)n2CC1', '%', -9.187),
  ('CCC(C)(C)n1nnnc1C(c1cccs1)N1CCCCC1 (configuration not stated)', '%', 117.5),
  ('COCCN(C)S(=O)(=O)c1cc(C)cc(F)c1', '%', -0.1957),
  ('CCC(C)(C)n1nnnc1C(c1cccs1)N1CCc2ccccc21 (configuration not stated)', '%', 114.5),
  ('CCC(CNC(=O)c1cncc(Br)c1)N1CCc2ccccc2C1 (configuration not stated)', '%', 4.86),
  ('O=C(N[C@@H]1CCNC[C@H]1O)c1cc(F)cc(Cl)c1', '%', 0.509),
  ('CCCN(Cc1cnn(C)c1)S(=O)(=O)c1cccc(F)c1C#N', '%', 103.9),
  ('COc1ncc(NS(=O)(=O)c2ccc(F)c(F)c2)c(OC)n1', '%', -5.769),
  ('COc1ccccc1CN(C)Cc1ccnc(C2CCCO2)n1 (configuration not stated)', '%', 134),
  ('COc1ccc(CN(C(=O)C2CCOCC2)c2ccncc2)cc1', '%', -12.74),
  ('COCc1noc(-c2ccc(N(C)Cc3cc(C)no3)nc2)n1', '%', -6.826),
  ('CCCN(Cc1cnn(C)c1)CC1CCCN(S(C)(=O)=O)C1 (configuration not stated)', '%', -6.058),
  ('Cc1cc(C2CCC2)nc(N(C)Cc2cc(-c3ccccn3)no2)n1', '%', 38.25);

---

test system: Wolbachia pipientis; assay: Anti-Wolbachia Cell-Based Screen; assay type: functional; parameters: scale not given: in the data most compounds retested in dose-response had high values; settings: 5 µM
Hit rate of the full screen: of about 48,000 compounds, about 13,000 (27%) showed an effect of 50% or more. Some of the results follow.
measured_quantity: Percent Effect (%)

INSERT INTO measurements (compound, observed) VALUES
  ('Cc1cnn(CC2CCCN2Cc2nc3ccccc3nc2C)c1 (configuration not stated)', 3.797),
  ('CCn1nc(C)c(CN(CCCOC)Cc2ccccn2)c1C.O=C(O)CC(O)(CC(=O)O)C(=O)O', 71.01),
  ('Cc1cnn(CC2CCCN2Cc2nc3ccccc3n2C)c1 (configuration not stated)', 0.7122),
  ('CNS(=O)(=O)c1cccc(C(C)NCc2ccsc2)c1 (configuration not stated)', -13.31),
  ('Cc1n[nH]c(C2CN(CC(=O)NCCc3ccsc3)CCO2)n1 (configuration not stated)', -13.37),
  ('Cc1cnn(CC2CCCN2Cc2nccn2C)c1 (configuration not stated)', -1.089),
  ('OCc1cc2ccccc2nc1NCC1CC1', 2.516);
